Reference source for all entries: patent US20240148821A1

TGT: protein-protein interaction between Kras and SOS1 (biotin-tagged human Kras loaded with GDP, His-tagged human SOS1) (Homo sapiens (Human), UniProt P01116, G12D)
EXPERIMENTAL DETAILS: Protein-protein interaction inhibition between Kras and SOS1 (KrasG12D-SOS PPI) using AlphaScreen;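 note: kras produced in E. coli, Ni-coupled donor beads and streptavidin acceptor beads, excitation 680 nm with emission detected at 520–620 nm via singlet oxygen transfer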
Assay type: biochemical
TEST CONDITIONS: AlphaScreen; biotin-tagged human Kras loaded with GDP, His-tagged human SOS1; read-out: KRAS G12D-SOS PPI IC50
Bridge positions count the residues as written; N and C are the ends. Square brackets hold non-standard residues; d marks the D form. Peptide text beside a SMILES is read from it. * marks the point of attachment. hPhe(3-Cl-4-CF3) = N[C@@H](CCc1ccc(C(F)(F)F)c(Cl)c1)C(=O)O; NMePhe(4-CF3) = CN[C@@H](Cc1ccc(C(F)(F)F)cc1)C(=O)O; NMeGly(cPent) = CN[C@H](C(=O)O)C1CCCC1; NEtLeu = CCN[C@@H](CC(C)C)C(=O)O; NMeAhp(2) = CCCCC[C@H](NC)C(=O)O; NMeI = CC[C@H](C)[C@H](NC)C(=O)O; NMeD = CN[C@@H](CC(=O)O)C(=O)O; Morpholide = C1CN(*)CCO1; NMeA = CN[C@@H](C)C(=O)O; Pyrrolidide = C1CCN(*)C1; Ac5c = NC1(C(=O)O)CCCC1; Aze = O=C(O)[C@@H]1CCN1; Sar = CNCC(=O)O
pIC50 values, listed per item
Scale for pIC50: -log10 of concentration given in mol/L; no unit attached.

COMPOUND: CC[C@H](C)[C@@H]1NC(=O)[C@H](CC(C)C)N(CC)C(=O)C[C@@H](C(=O)N2CCCC2)N(C)C(=O)[C@H]([C@@H](C)CC)N(C)C(=O)C2(CCCC2)NC(=O)[C@@H]2CCCN2C(=O)[C@H](CCc2ccc(C(F)(F)F)c(Cl)c2)NC(=O)CN(C)C(=O)[C@H](Cc2ccc(C(F)(F)F)cc2)N(C)C(=O)[C@@H]2CCN2C(=O)[C@H](C)NC1=O [Compound 1146] ([NEtLeu]IA[Aze][NMePhe(4-CF3)][Sar][hPhe(3-Cl-4-CF3)]P[Ac5c][NMeI][NMeD]-Pyrrolidide; lactam N-11)
pIC50: 8.72

Switching to the query record.
Request: Request the reported pIC50 associated with CCCCC[C@H]1C(=O)N[C@@H]([C@@H](C)CC)C(=O)N(C)[C@@H](C)C(=O)N2CC[C@H]2C(=O)N(C)[C@@H](C2CCCC2)C(=O)N(C)CC(=O)N[C@@H](CCc2ccc(C(F)(F)F)c(Cl)c2)C(=O)N2CCC[C@H]2C(=O)NC2(CCCC2)C(=O)N(C)[C@@H](C2CCCC2)C(=O)N(C)[C@H](C(=O)N2CCOCC2)CC(=O)N1C [Compound 343] ([NMeAhp(2)]I[NMeA][Aze][NMeGly(cPent)][Sar][hPhe(3-Cl-4-CF3)]P[Ac5c][NMeGly(cPent)][NMeD]-Morpholide; lactam N-11)
Response: 9.06
